Listing of recorded pIC50 by entry.
# Assayed Target: HIV protease (Human immunodeficiency virus type 1 group M subtype B, UniProt P04585)
pIC50: −log10 of the molar value.

>>> value_reported("CC(C)(C)NC(=O)[C@@H]1C[C@@H]2CCCC[C@@H]2CN1C[C@@H](O)C[C@@H](Cc1ccccc1)C(=O)N[C@H]1c2ccccc2C[C@H]1O [A]")
"8.22 to 9.52"

Here is another compound to look at.
Q: Consider the compound CC(C)(C)NC(=O)[C@@H]1CN(C(=O)OCc2ccccc2)CCN1C[C@@H](O)C[C@@H](Cc1ccccc1)C(=O)N[C@H]1c2ccccc2C[C@H]1O [B] and give its measured pIC50.
A: 8.22 to 9.52
